The reported measurements were obtained from PubChem BioAssay AID1919000.

System: 653999-131-R-J2-PDC complex spheroids, growth % test/control
Assay protocol: Anticancer human tumor 653999-131-R-J2-PDC patient-derived lung adenocarcinoma cell line growth inhibition [AhR]
Condition parameters: second compound 3.16 µM; first compound 0.316 µM; stronger effect = lower value
Lab note: compare viability, T/C with 90%, writing true (1) if less and false (0) if equal or more.

viability, T/C under 90%? Item: COc1cccc2c1C(=O)c1c(O)c3c(c(O)c1C2=O)CC(O)(C(=O)CO)CC3OC1CC(N)C(O)C(C)O1 (configuration not stated) + Cc1ccccc1N=Nc1ccc(NC(=O)c2ccnn2C)c(C)c1 true (1)

viability, T/C under 90%? Item: Nc1ccn(C2OC(CO)C(O)C2(F)F)c(=O)n1 (configuration not stated) + Cc1cncc(-c2nc(NCCc3c[nH]c4ccccc34)c3ncn(C(C)C)c3n2)c1 true (1)

viability, T/C under 90%? Item: NS(=O)(=O)OCC1CC(n2ccc3c(NC4CCc5ccccc54)ncnc32)CC1O (configuration not stated) + Cc1ccccc1N=Nc1ccc(NC(=O)c2ccnn2C)c(C)c1 false (0)

viability, T/C under 90%? Item: Nc1ccn(C2OC(CO)C(O)C2(F)F)c(=O)n1 (configuration not stated) + CC(CO)NC(=O)c1cc(-c2ccc(Cl)cc2)nn(-c2cnn(C)c2)c1=O true (1)

viability, T/C under 90%? Item: COc1cccc2c1C(=O)c1c(O)c3c(c(O)c1C2=O)CC(O)(C(=O)CO)CC3OC1CC(N)C(O)C(C)O1 (configuration not stated) + Cc1cncc(-c2nc(NCCc3c[nH]c4ccccc34)c3ncn(C(C)C)c3n2)c1 true (1)

###

Tested on: 653999-131-R-J2-PDC complex spheroids, growth % test/control
Assay protocol: Anticancer human tumor 653999-131-R-J2-PDC cell line growth inhibition [AhR];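 also: spheroids exposed to agents for seven days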
Condition parameters: curve of first compound; second compound 0.1 µM
pIC50: −log10 of the molar value.
Readout kind: pIC50

Some solved entries appear below for comparison.
{"columns": ["Molecule", "Observed result"],
 "data": [
  ["NS(=O)(=O)OCC1CC(n2ccc3c(NC4CCc5ccccc54)ncnc32)CC1O (stereo unspecified) + CC(CO)NC(=O)c1cc(-c2ccc(Cl)cc2)nn(-c2cnn(C)c2)c1=O", "< 5.00"],
  ["COc1cc(Nc2ncc3c(n2)-c2ccc(Cl)cc2C(c2c(F)cccc2OC)=NC3)ccc1C(=O)O + Cc1ccccc1N=Nc1ccc(NC(=O)c2ccnn2C)c(C)c1", "< 5.00"],
  ["Nc1ncn(C2CC(O)C(CO)O2)c(=O)n1 (stereo unspecified) + Cc1cncc(-c2nc(NCCc3c[nH]c4ccccc34)c3ncn(C(C)C)c3n2)c1", "< 6.00"],
  ["CC(C)CC(NC(=O)C(Cc1ccccc1)NC(=O)c1cnccn1)B(O)O (stereo unspecified) + CC(CO)NC(=O)c1cc(-c2ccc(Cl)cc2)nn(-c2cnn(C)c2)c1=O", 7.85],
  ["COc1cc(Nc2ncc3c(n2)-c2ccc(Cl)cc2C(c2c(F)cccc2OC)=NC3)ccc1C(=O)O + CC(CO)NC(=O)c1cc(-c2ccc(Cl)cc2)nn(-c2cnn(C)c2)c1=O", "< 5.00"]
]}

// below: pIC50 requested for another molecule
# lookup: 653999-131-R-J2-PDC complex spheroids, growth % test/control pIC50, key = COc1cccc2c1C(=O)c1c(O)c3c(c(O)c1C2=O)CC(O)(C(=O)CO)CC3OC1CC(N)C(O)C(C)O1 (stereo unspecified) + CC(CO)NC(=O)c1cc(-c2ccc(Cl)cc2)nn(-c2cnn(C)c2)c1=O 6.87

###

Test system: 653999-131-R-J2-PDC complex spheroids, growth % test/control
Assay protocol: Anticancer human tumor 653999-131-R-J2-PDC cell line growth inhibition [AhR];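 also: spheroids exposed to agents for seven days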;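 as to viability, T/C: 100% = DMSO vehicle control viability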
Condition parameters: second compound 0.1 µM; first compound 10 µM; stronger effect = lower value
Readout kind: viability, T/C (%)
Answers are plain numbers, in %.

Some solved entries appear below for comparison.
{"columns": ["Compound", "Observed result"],
 "data": [
  ["O=C(C=Cc1cccc(S(=O)(=O)Nc2ccccc2)c1)NO + Cc1ccccc1N=Nc1ccc(NC(=O)c2ccnn2C)c(C)c1", 11.3],
  ["CC1COCCN1c1cc(C2(S(C)(=N)=O)CC2)nc(-c2ccnc3[nH]ccc23)n1 (stereo not drawn) + CC(CO)NC(=O)c1cc(-c2ccc(Cl)cc2)nn(-c2cnn(C)c2)c1=O", 47.1],
  ["CC(C)c1c(-c2ccccc2)nc2c(C#N)c[nH]n2c1=O + Cc1cncc(-c2nc(NCCc3c[nH]c4ccccc34)c3ncn(C(C)C)c3n2)c1", 102],
  ["COc1ccc([C@@H](O)c2cc(-c3ncnc4cc(N5CCOCC5)ccc34)c(F)cc2Cl)nn1 + CC(CO)NC(=O)c1cc(-c2ccc(Cl)cc2)nn(-c2cnn(C)c2)c1=O", 47.6],
  ["COc1cc(Nc2ncc3c(n2)-c2ccc(Cl)cc2C(c2c(F)cccc2OC)=NC3)ccc1C(=O)O + Cc1ccccc1N=Nc1ccc(NC(=O)c2ccnn2C)c(C)c1", 64.3]
]}

Required: viability, T/C, one value per compound below.
1. NS(=O)(=O)OCC1CC(n2ccc3c(NC4CCc5ccccc54)ncnc32)CC1O (stereo not drawn) + CC(CO)NC(=O)c1cc(-c2ccc(Cl)cc2)nn(-c2cnn(C)c2)c1=O
2. O=C(c1cc(Cc2n[nH]c(=O)c3ccccc23)ccc1F)N1CCN(C(=O)C2CC2)CC1 + Cc1ccccc1N=Nc1ccc(NC(=O)c2ccnn2C)c(C)c1
3. Nc1ccn(C2OC(CO)C(O)C2(F)F)c(=O)n1 (stereo not drawn) + CC(CO)NC(=O)c1cc(-c2ccc(Cl)cc2)nn(-c2cnn(C)c2)c1=O
4. CC(C)c1c(-c2ccccc2)nc2c(C#N)c[nH]n2c1=O + CC(CO)NC(=O)c1cc(-c2ccc(Cl)cc2)nn(-c2cnn(C)c2)c1=O
5. O=C(C=Cc1cccc(S(=O)(=O)Nc2ccccc2)c1)NO + Cc1cncc(-c2nc(NCCc3c[nH]c4ccccc34)c3ncn(C(C)C)c3n2)c1
6. O=C(C=Cc1cccc(S(=O)(=O)Nc2ccccc2)c1)NO + CC(CO)NC(=O)c1cc(-c2ccc(Cl)cc2)nn(-c2cnn(C)c2)c1=O

[51, 77.6, 42.9, 90.9, 10.7, 6.62]

###

System: 653999-131-R-J2-PDC complex spheroids, growth % test/control
Assay protocol: Anticancer human tumor 653999-131-R-J2-PDC cell line growth inhibition [AhR]; active = viability on the fitted dose curve at most 10% of control; inactive = the rest;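 also: spheroids exposed to agents for seven days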
Condition parameters: second compound 0.1 µM; first compound 0.3 µM
Your answer must be one of the following: 1 for active, 0 for inactive

Check out these entries, answers already filled in.
{"columns": ["Molecule", "Target of assay", "Class label"],
 "data": [
  ["CC(C)CC(NC(=O)C(Cc1ccccc1)NC(=O)c1cnccn1)B(O)O (stereo not given) + Cc1cncc(-c2nc(NCCc3c[nH]c4ccccc34)c3ncn(C(C)C)c3n2)c1", "653999-131-R-J2-PDC complex spheroids, growth % test/control", 1],
  ["CC(C)CC(NC(=O)C(Cc1ccccc1)NC(=O)c1cnccn1)B(O)O (stereo not given) + Cc1ccccc1N=Nc1ccc(NC(=O)c2ccnn2C)c(C)c1", "653999-131-R-J2-PDC complex spheroids, growth % test/control", 1],
  ["CCN(c1cc(-c2ccc(CN3CCOCC3)cc2)cc(C(=O)NCc2c(C)cc(C)[nH]c2=O)c1C)C1CCOCC1 + CC(CO)NC(=O)c1cc(-c2ccc(Cl)cc2)nn(-c2cnn(C)c2)c1=O", "653999-131-R-J2-PDC complex spheroids, growth % test/control", 0],
  ["Nc1ncn(C2CC(O)C(CO)S2)c(=O)n1 (stereo not given) + Cc1cncc(-c2nc(NCCc3c[nH]c4ccccc34)c3ncn(C(C)C)c3n2)c1", "653999-131-R-J2-PDC complex spheroids, growth % test/control", 0]
]}

In this assay, the call recorded for Nc1ncn(C2CC(O)C(CO)S2)c(=O)n1 (stereo not given) + CC(CO)NC(=O)c1cc(-c2ccc(Cl)cc2)nn(-c2cnn(C)c2)c1=O was what? 0

In this assay, the call recorded for CC(C)CC(NC(=O)C(Cc1ccccc1)NC(=O)c1cnccn1)B(O)O (stereo not given) + CC(CO)NC(=O)c1cc(-c2ccc(Cl)cc2)nn(-c2cnn(C)c2)c1=O was what? 1

In this assay, the call recorded for O=C(C=Cn1cnc(-c2cc(C(F)(F)F)cc(C(F)(F)F)c2)n1)NNc1cnccn1 + CC(CO)NC(=O)c1cc(-c2ccc(Cl)cc2)nn(-c2cnn(C)c2)c1=O was what? 0

###

Tested on: 653999-131-R-J2-PDC complex spheroids, growth % test/control
Assay protocol: Anticancer human tumor 653999-131-R-J2-PDC cell line growth inhibition [AhR];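 also: spheroids exposed to agents for seven days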;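 as to viability, T/C: 100% = DMSO vehicle control viability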
Condition parameters: second compound 1 µM; first compound 0.000316 µM; stronger effect = lower value
What viability, T/C was measured for each of the following?
Answers are plain numbers, in %.

{"columns": ["Compound", "Measure unit", "viability, T/C"],
 "data": [
  ["Cn1ncnc1C1c2n[nH]c(=O)c3cc(F)cc(c23)NC1c1ccc(F)cc1 (stereo not drawn) + Cc1ccccc1N=Nc1ccc(NC(=O)c2ccnn2C)c(C)c1", "%", 103],
  ["Cn1ncnc1C1c2n[nH]c(=O)c3cc(F)cc(c23)NC1c1ccc(F)cc1 (stereo not drawn) + CC(CO)NC(=O)c1cc(-c2ccc(Cl)cc2)nn(-c2cnn(C)c2)c1=O", "%", 105]
]}

Item CC[C@@]1(O)C(=O)OCc2c1cc1n(c2=O)Cc2cc3c(CN(C)C)c(O)ccc3nc2-1 + CC(CO)NC(=O)c1cc(-c2ccc(Cl)cc2)nn(-c2cnn(C)c2)c1=O : provide viability, T/C 111
